meta.source: patent US20260256747A1

Target: human GPR84 receptor (Homo sapiens)
Construct: host or cells: HEK293 cells, transient transfection
Sequence (Q9NQS5 whole entry): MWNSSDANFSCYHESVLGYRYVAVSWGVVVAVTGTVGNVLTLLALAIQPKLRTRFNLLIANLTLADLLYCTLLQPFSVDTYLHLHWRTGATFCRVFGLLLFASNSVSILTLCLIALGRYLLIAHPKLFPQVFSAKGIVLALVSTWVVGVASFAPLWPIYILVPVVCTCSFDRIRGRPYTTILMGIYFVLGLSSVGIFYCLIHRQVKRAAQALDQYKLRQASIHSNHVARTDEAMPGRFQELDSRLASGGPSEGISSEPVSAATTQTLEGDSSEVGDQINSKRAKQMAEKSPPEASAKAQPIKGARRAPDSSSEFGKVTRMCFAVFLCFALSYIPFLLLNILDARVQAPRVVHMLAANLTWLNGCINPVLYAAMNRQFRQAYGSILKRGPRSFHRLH
Assay: Gαi biosensor BRET assay in HEK293 cells transfected with GPR84, stimulated with the GPR84 agonist ZQ-16
Format: cell-based
Conditions: HEK293, single concentration, concentration class F = 10 μM, 200 nmol/L ZQ-16
RECORDED_ENDPOINT: inhibition at 10 µM

Please review the entries below; each comes with its answer.
CN(C)C(=O)COc1cnc(-c2cn(CC(=O)N(C)C)nn2)c(OC2CC2)c1 [Compound I-71] | ≤ 25%
CN(C)c1cc(N2CC3(CC(O)C3)C2)ccc1-c1cn(CC2OCC3(CC3)CO2)nn1 (stereo not drawn) [Compound I-7] | > 75%
CN(C)C(=O)Cn1cc(-c2ncc(C#CC3(O)CC3)cc2OC2CC2)nn1 [Compound I-252] | > 75%
O=C(Cn1cc(-c2ncc(C#CC3CC3)cc2OC2CC2)nn1)N1C[C@@H](O)[C@H](O)C1 [Compound I-246] | 50 to 75%
N=C(N)c1cnc(-c2cn(CC3OCC4(CC4)CO3)nn2)c(OC2CC2)c1 [Compound I-265] | 25 to 50%
CN(C)c1cc(N2CC(C)(CO)C2)c(F)cc1-c1cn(CC2OCC3(CC3)CO2)cn1 [Compound I-52] | > 75%
Cc1cc(C#CC2CC2)ccc1-c1cn(Cc2cocn2)nn1 [Compound I-13] | ≤ 25%
O=C(Cn1cc(-c2ncc(-c3nnn[nH]3)cc2OC2CC2)nn1)N1CCCC1 [Compound I-233] | 25 to 50%
CN(C)C(=O)Cn1cc(-c2ncc(C#CC3CC3)cc2OC2CC2)nn1 [Compound I-23] | > 75%
O=C(Cn1cc(-c2ncc(C#CC3CC3)cc2OC2CC2)nn1)N1CCOCC1 [Compound I-268] | 25 to 50%

Incoming: Recorded inhibition at 10 µM for Clc1cc(N2CCN(Cc3ccccn3)CC2)cnc1-c1cncn1CC1OCC2(CC2)CO1 [Compound I-214] with human GPR84 receptor (Homo sapiens), please?
Outgoing: 50 to 75%

Incoming: Enter reported inhibition at 10 µM observed with human GPR84 receptor (Homo sapiens) for CN(C)C(=O)CNc1cnc(-c2cn(CC3OCC4(CC4)CO3)nn2)c(OC2CC2)c1 [Compound I-73]
Outgoing: > 75%

Incoming: // fetch human GPR84 receptor (Homo sapiens) inhibition at 10 µM for CN(C)c1cc(N2CC3(COC3)C2)ccc1-c1cn(CC2OCC3(CC3)CO2)cn1 [Compound I-42]
Outgoing: > 75%

Incoming: Hello, I am looking for reported inhibition at 10 µM with human GPR84 receptor (Homo sapiens) for CC1(C)COC(Cn2cc(-c3ncc(C#N)cc3OC3CC3)nn2)OC1 [Compound I-14] . Could you help?
Outgoing: > 75%

Incoming: Recorded inhibition at 10 µM for N#Cc1cnc(-c2cn(CC(=O)N3CCCC3)nn2)c(OC2CC2)c1 [Compound I-241] with human GPR84 receptor (Homo sapiens), please?
Outgoing: 25 to 50%
